Values were extracted from PubChem BioAssay (EPA / NIEHS).

- Assay info: BSK_3C_SRB: Viability Assessment in the BioMAP Diversity Plus: 3C Assay (AID 2283023);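 note: cells read 24 h after compound dosing; fitted both ways against DMSO so a hit may be signal rise or drop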
- Recorded conditions: primary human endothelial cells (HUVEC)
Active and inactive are the calls of the source. Rule for the calls: active = hit-call score of the fitted dose curve at least 0.9, where 1 is the maximum; inactive = score below 0.9.
Use one of these outcomes when replying: TRUE (active), FALSE (inactive)

Here's what some known entries look like.
# Compound, Class name
rows = [
    ("CC1CCC(C(C)CS)CC1S (centres undefined)", "TRUE"),
    ("O=C=NC1CCC(CC2CCC(N=C=O)CC2)CC1 (centres undefined)", "FALSE"),
    ("O=C(O)c1cn(-c2ccc(F)cc2)c2cc(N3CCNCC3)c(F)cc2c1=O", "FALSE"),
]

Input line: Please state the recorded outcome for this compound: `O=C(O)c1cn(C2CC2)c2cc(N3CCNCC3)c(F)cc2c1=O`
Output line: FALSE
